assay: Pharmacokinetic properties of test compound in mice (oral); assay type: in vivo, C57BL male mice; conditions: mice, oral 10 mg/kg, plasma
Counter-ions that a name gives are not always drawn.
property: Area under the drug-time curve (0-inf) (µM·h)

Use the examples below as a reference point.
CCOC(=O)Cc1coc2ccc3cc(OCCN(C)C)ccc3c12 [Hydrochloride of WX008] :: 10.27
O=C1CCC(c2coc3ccc4occc4c23)C(=O)N1 (centres unmarked) :: 5.50
O=C1CCC(c2coc3ccc4ccccc4c23)C(=O)N1 (centres unmarked) :: 2.49

A: O=C1CCC(c2coc3ccc4[nH]ccc4c23)C(=O)N1 (centres unmarked)
B: O=C1CCC(c2coc3ccc4cc(OCCN5CCOCC5)ccc4c23)C(=O)N1 (centres unmarked) [Hydrochloride of WX020]
Prompt: Dear colleague, could you let me know whether A or B has the lower recorded Area under the drug-time curve (0-inf)? Thanks. Mark your answer with the label of the selected entry.
Response: A
(A: 7.79 µM·h, B: 18.38 µM·h)
